Test: Biodistribution of 14C-CA4P following subconjunctival injection
Format: in vivo, New Zealand rabbits
Details: retina; 0.1 mg/ml subconjunctival
Experimental: ^14C-CA4P (OXiGENE Inc., Watertown, Mass.) was resuspended in 100 ul volume of saline solution and injected with a 30 G needle into the right eyes of anesthesized male New Zealand rabbits (4 months old, 1.8-2.5 kg, n=3 per sample). Three different concentrations of ^14C-CA4P were tested (1, 10, 100 mg/ml) corresponding to doses of 1, 5, and 5 uCi of applied radioactivity respectively. A blank control group was also included. Rabbits were anaesthetized at 1, 6, 24, and 48 hours for blood sampling. […]
Attribute measured: Cmax
# number then unit; no other words

Reported Cmax ( COc1ccc(/C=C\c2cc(OC)c(OC)c(OC)c2)cc1OP(=O)([O-])[O-].[Na+].[Na+] [CA4P, combretastatin A4 disodium phosphate] ) = 130 nM
